Biological target: bovine serum albumin (bovine) (UniProt P02769)
Sequence (P02769 25-607 limits assumed): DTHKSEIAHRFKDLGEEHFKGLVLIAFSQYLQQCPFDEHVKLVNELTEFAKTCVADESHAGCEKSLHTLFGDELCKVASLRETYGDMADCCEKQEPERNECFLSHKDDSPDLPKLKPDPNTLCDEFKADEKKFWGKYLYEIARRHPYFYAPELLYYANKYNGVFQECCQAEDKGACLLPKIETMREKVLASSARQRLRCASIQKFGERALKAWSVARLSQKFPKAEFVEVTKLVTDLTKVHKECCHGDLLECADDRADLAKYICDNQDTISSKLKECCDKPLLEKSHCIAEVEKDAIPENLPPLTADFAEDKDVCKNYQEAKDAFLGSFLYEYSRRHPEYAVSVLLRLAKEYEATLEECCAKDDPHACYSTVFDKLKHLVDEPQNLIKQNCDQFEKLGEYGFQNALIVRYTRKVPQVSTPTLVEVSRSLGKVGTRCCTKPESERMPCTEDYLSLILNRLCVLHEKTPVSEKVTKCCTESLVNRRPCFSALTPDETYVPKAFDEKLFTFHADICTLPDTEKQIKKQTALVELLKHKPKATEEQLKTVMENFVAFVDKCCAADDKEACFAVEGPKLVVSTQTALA
Assay: phage ELISA on coated BSA
Ends that are not written are not given here.
TEST_READOUT: OD (OD 650 nm)
The reply should contain only the number, in OD 650 nm.

Which OD is listed for RYKHDIGCDAGVDKKSSSVRGGCGAHSSPPRAGRGPRGTMVSRL [phage DCX8] ?
0.063

# iterate: RTTTAKGCLLGSFGVLSGCSFTPTSPPPHLGYPPHSVN (cysteine pairing not given here; also: displayed as N-terminal pIII fusion on M13 phage) [phage SNiAX6]
0.056

# iterate: RASTQGGRGVAPEFGASVLGRGCGSATYYTNSTSCKDAMGHNYS (cysteine pairing not given here; also: displayed as N-terminal pIII fusion on M13 phage, M13 phage displaying this insert as N-terminal pIII fusion; whole phage in the ELISA; not shown: M13 phage particle / pIII display carrier (and vector flanks)) [phage PAX40]
0.076

# iterate: SGFWEFSRGLWDGENRKSVRSGCGFRGSSAQGPCPVTPATIDKH [phage DAB30]
0.121

All values here come from patent US7053177B1.
